The reported measurements were obtained from patent US20250147035A1.

Molecular target: T1, p…-Biotin
T1 sequence (peptide, phosphothreonine at 1; C-terminal Biotin): TAKLDEESILKQ
Assay: Octet (BLI), fixed reagent concentration
Primed or numbered codes have the meaning given here. Where no end group is shown, it is not given here. [ ]: non-standard residue; d: D form. pS = N[C@@H](COP(=O)(O)O)C(=O)O; Biotin′ = not defined here
measured.metric: Octet binding assay response
Hey, just send me the number, nothing else.

[[record]]
binder = "PM23 (Human/Scp1) (other) MAFEELRVQAENARLDMHFKLKEDHEKIQHLQEEYKKEVNDKENQVSLLLIQRTEKENKMKDLTFLLEESRDKVNQLEDKTKLQDENVKELNKKKDHLTSELEDTKMSLQRSMNTQKALEEDLQIATKTIYQLTEEKEAQMEEFNKAKTDHSFMVTELKATTCTLEELLRTEQQRLVKNED"
experimental_result = 0.3


Item: PM20 (Human/RB15B) (other) MQLGWNGLLVLKNSCFPTSMHILEGDQGVISSLLKDHTSGSKLTQLKIAQRLRLDQPKLDEVTRRIKQGSPNGYAVLLATQATPSGLGTEGMPTVEPGLQRRLLRNLVSYLKQKQAAGVISLPVGGSKGRDGTGMLYAFPPCDFSQQYLQSALRTLGKLEEEHMVIVIVRDTA | Octet binding assay response: 0.5
